meta.source: patent US8557796B2

// reported BTX bond, 10 μM, % inhibition for each item listed
# Test system: batrachotoxin (BTX) binding site (binding site 2) of the sodium channel
# Experiment summary: Bond test on the sodium channel, binding site 2 (BTX bond), [3H]-batrachotoxinin A20 α-benzoate displacement
# Test settings: rat cerebrocortex synaptosomes
API: value field is a number in %; no unit string.

INSERT INTO measurements (test_smiles, property_label, result_value) VALUES
  ('O=C(NCCc1cccc(C(F)(F)F)c1)C1=NOC2(CCN(S(=O)(=O)c3ccc(F)cc3)CC2)C1', 'BTX bond, 10 μM, % inhibition', 51),
  ('O=C(C1=NOC2(CCN(S(=O)(=O)c3ccc(OC(F)(F)F)cc3)CC2)C1)N(CCc1ccccc1)Cc1ccccc1', 'BTX bond, 10 μM, % inhibition', 79);

In: Form field: BTX bond, 10 μM, % inhibition recorded for `CC(=O)N1CCC2(CC1)CC(C(=O)NCc1ccccc1)=NO2` with batrachotoxin (BTX) binding site (binding site 2) of the sodium channel (enter value)
Out: 43

In: Also `CN(C)S(=O)(=O)N1CCC2(CC1)CC(C(=O)N1CCN(Cc3ccc(C(C)(C)C)cc3)CC1)=NO2` ?
Out: 69

In: Also `CN(C)S(=O)(=O)N1CCC2(CC1)CC(C(=O)N1CCN(C3CCCCCC3)CC1)=NO2` ?
Out: 53

In: Also `O=C(C1=NOC2(CCN(S(=O)(=O)Cc3ccccc3)CC2)C1)N1CCN(CCCc2ccccc2)CC1` ?
Out: 50

In: Also `O=C(NCc1cccs1)C1=NOC2(CCN(S(=O)(=O)c3ccc(Cl)cc3)CC2)C1` ?
Out: 70

In: Also `O=C(NCc1cccc(F)c1)C1=NOC2(CCN(S(=O)(=O)c3cccs3)CC2)C1` ?
Out: 41
